target: T1, TBD-6 (LC I93A); experiment: competition ELISA, peptide vs Fab binding to captured biotin-TROP2
T1 construct: Fab; also called LC I93A mutant
Where no end group is shown, it is not given here.
Measured endpoint: pIC50
# reply with the number alone; pIC50 is -log10 of concentration in mol/L

Answered examples (4):
{"Binder": "SYLVCVKNVYCWTA (cysteine pairing not given here; also: biotinylated, site not given here) [Peptide-29]", "pIC50": 6.10}
{"Binder": "IDFCAMYQWPICDT (cysteine pairing not given here; also: biotinylated (site not given here)) [Peptide-1]", "pIC50": 6.46}
{"Binder": "MDFCQIYDWPICRL (cysteine pairing not given here; also: biotinylated (site not given here)) [Peptide-18]", "pIC50": 5.21}
{"Binder": "VDFCKLYNWPVCQT (cysteine pairing not given here; also: biotinylated, site not given here) [Peptide-5]", "pIC50": 5.98}

For IDFCAIYQWPVCRS (cysteine pairing not given here; also: biotinylated (site not given here)) [Peptide-10] , write its pIC50. 6.21
